- measurement notes: clinical
- condition description: both, human, in vivo, AUC∞, mean (CV %)

{"columns": ["compound", "AUC(0-inf)"],
 "data": [
  ["Cn1c(N)c(NC(=O)NCCN)c[n+]1CC1=C(C(=O)O)N2C(=O)[C@@H](NC(=O)/C(=N\\OC(C)(C)C(=O)O)c3nsc(N)n3)[C@H]2SC1 [Ceftolozane]", "1680 µg·h/mL"]
]}

* * *

- measurement notes: clinical
- condition description: both, human, in vivo, 750 mg

{"columns": ["structure smiles", "AUC(0-inf)"],
 "data": [
  ["Cn1c(N)c(NC(=O)NCCN)c[n+]1CC1=C(C(=O)O)N2C(=O)[C@@H](NC(=O)/C(=N\\OC(C)(C)C(=O)O)c3nsc(N)n3)[C@H]2SC1", "537 µg·h/mL"]
]}

* * *

# half-life per entry
- measurement notes: clinical
- condition description: human, in vivo, t1/2, geometric mean
reported metric: half-life (h)

{"columns": ["compound", "measurement"],
 "data": [
  ["C[C@]1(Cn2ccnn2)[C@H](C(=O)O)N2C(=O)C[C@H]2S1(=O)=O [Tazobactam, tazobactam]", 1.78],
  ["Cn1c(N)c(NC(=O)NCCN)c[n+]1CC1=C(C(=O)O)N2C(=O)[C@@H](NC(=O)/C(=N\\OC(C)(C)C(=O)O)c3nsc(N)n3)[C@H]2SC1 [Ceftolozane]", 5.85]
]}

* * *

# Vd per entry
- measurement notes: clinical
- condition description: both, human, in vivo, Vss
reported metric: Vd (L)

{"columns": ["molecule", "measurement"],
 "data": [
  ["C[C@]1(Cn2ccnn2)[C@H](C(=O)O)N2C(=O)C[C@H]2S1(=O)=O [Tazobactam, tazobactam]", 10.4],
  ["Cn1c(N)c(NC(=O)NCCN)c[n+]1CC1=C(C(=O)O)N2C(=O)[C@@H](NC(=O)/C(=N\\OC(C)(C)C(=O)O)c3nsc(N)n3)[C@H]2SC1 [Ceftolozane]", 7.26]
]}

* * *

- measurement notes: clinical
- condition description: human, in vivo, t1/2, mean (CV %)
reported metric: half-life (h)

{"columns": ["structure smiles", "measurement"],
 "data": [
  ["Cn1c(N)c(NC(=O)NCCN)c[n+]1CC1=C(C(=O)O)N2C(=O)[C@@H](NC(=O)/C(=N\\OC(C)(C)C(=O)O)c3nsc(N)n3)[C@H]2SC1", 2.77]
]}

* * *

- measurement notes: clinical
- condition description: both, human, in vivo, 750 mg

{"columns": ["compound", "clearance [mL/min]"],
 "data": [
  ["Cn1c(N)c(NC(=O)NCCN)c[n+]1CC1=C(C(=O)O)N2C(=O)[C@@H](NC(=O)/C(=N\\OC(C)(C)C(=O)O)c3nsc(N)n3)[C@H]2SC1 [Ceftolozane]", 16.7]
]}

* * *

- measurement notes: Pharmacokinetics of ceftolozane/tazobactam in healthy adults, single and multiple IV doses
- condition description: human, plasma, intravenous, 1.5 g

{"columns": ["molecule", "AUC(0-t) / ng·h/mL"],
 "data": [
  ["C[C@]1(Cn2ccnn2)[C@H](C(=O)O)N2C(=O)C[C@H]2S1(=O)=O [Tazobactam, tazobactam]", 24400]
]}

* * *

- measurement notes: clinical
- condition description: human, in vivo

{"columns": ["structure smiles", "clearance"],
 "data": [
  ["Cn1c(N)c(NC(=O)NCCN)c[n+]1CC1=C(C(=O)O)N2C(=O)[C@@H](NC(=O)/C(=N\\OC(C)(C)C(=O)O)c3nsc(N)n3)[C@H]2SC1", "68.3 to 112 mL/min"]
]}

Source listed as patent US10933053B2.
